system-tested: T1, monkey IL-25 expressed with a C-terminal myc-myc-hexahistidine tag (M. fascicularis (cynomolgus monkey))
T1 construct: also called monkey IL-25-MMH; MfIL-25-MMH
T1 chain: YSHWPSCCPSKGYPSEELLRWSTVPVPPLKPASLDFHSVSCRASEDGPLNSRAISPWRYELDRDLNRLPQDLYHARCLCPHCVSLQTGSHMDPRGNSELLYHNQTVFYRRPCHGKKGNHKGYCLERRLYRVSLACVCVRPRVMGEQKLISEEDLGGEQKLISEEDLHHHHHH
protocol-text: SPR Biacore, captured mAb, 25°C;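 note: Real-time surface plasmon resonance on a Biacore 4000, with IL-25-MMH binding to purified anti-IL-25 antibodies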
Please go through the items and note down their 100 nM Monkey IL-25-MMH Bound (RU).
Answers are plain numbers, in RU.

Known 100 nM Monkey IL-25-MMH Bound (RU) results, listed for orientation:
INSERT INTO measurements (binder, result_number) VALUES
  ('H4H10905P (antibody, human IgG4, V domains shown) VH: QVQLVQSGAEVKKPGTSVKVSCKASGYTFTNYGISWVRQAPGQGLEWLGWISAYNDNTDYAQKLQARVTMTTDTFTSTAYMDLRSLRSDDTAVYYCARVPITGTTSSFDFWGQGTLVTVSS VL: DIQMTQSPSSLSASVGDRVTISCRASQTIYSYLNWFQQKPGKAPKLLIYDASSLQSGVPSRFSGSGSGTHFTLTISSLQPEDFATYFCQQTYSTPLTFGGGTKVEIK', 54),
  ('H4H10871P (antibody, human IgG4, V domains shown) VH: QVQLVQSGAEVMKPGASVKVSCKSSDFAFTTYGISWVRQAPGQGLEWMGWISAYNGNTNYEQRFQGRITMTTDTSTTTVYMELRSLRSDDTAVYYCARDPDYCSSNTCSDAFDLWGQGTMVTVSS VL: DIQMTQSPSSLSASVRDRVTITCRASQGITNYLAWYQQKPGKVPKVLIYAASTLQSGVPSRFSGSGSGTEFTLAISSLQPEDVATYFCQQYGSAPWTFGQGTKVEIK', 42);

Please turn your attention to the following entry.
Requested read-out: 100 nM Monkey IL-25-MMH Bound (RU). Entry: H4H10907P (antibody, human IgG4, V domains shown) VH: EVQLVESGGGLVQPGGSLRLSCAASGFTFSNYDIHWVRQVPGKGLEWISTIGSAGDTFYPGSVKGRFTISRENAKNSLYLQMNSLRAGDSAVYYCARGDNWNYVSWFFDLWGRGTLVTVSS VL: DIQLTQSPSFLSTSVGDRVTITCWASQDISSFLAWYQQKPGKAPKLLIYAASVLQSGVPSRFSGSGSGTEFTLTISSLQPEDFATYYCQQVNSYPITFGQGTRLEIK
43
